Test Protocol: Quantitative highthroughput screen to assess conditional lethalithy of NOMO1 cells grown in RPMI1640 with untreated serum (RPMI+s) (AID 1963876); further: nearly all actives have a fitted effect of over 35% in size
Recorded Conditions: NOMO1 AML cells in RPMI+serum, CellTiter-Glo viability, 48 h; series mostly up to 45.8 µM
Results filed as inconclusive are left out. Active and inactive are the calls of the source. The call rests on the fitted dose curve; in most records, active means well fitted cell-killing curve with a large enough effect; inconclusive means small, poorly fitted or top-dose-only effect; inactive means flat fitted curve, though single readings scatter.
Lab note: assign the record to one of Y = active, N = inactive

Outcome? `COc1ccc([C@@H]2CC(=O)c3c(O)cc(O[C@@H]4O[C@H](CO[C@@H]5O[C@@H](C)[C@H](O)[C@@H](O)[C@@H]5O)[C@@H](O)[C@H](O)[C@@H]4O)cc3O2)cc1O` N

Could you check what this test reported for C=C1CCC2[C@](C)(CO)C(O)CC[C@]2(C)C1CC=C1C(=O)OCC1O (some centres undefined) ? N

Identify the outcome logged in this assay for the compound shown: `CNC(=O)c1nn(C)c2c1C(C)(C)Cc1cnc(Nc3ccc(N4CCN(C)CC4)cc3)nc1-2` Y

What is the recorded call for this compound in the test? COc1ccccc1OCCNCC(O)COc1cccc2[nH]c3ccccc3c12 (centres undefined) N

For `Cc1cccc(C=NNc2cc(N3CCOCC3)nc(OCCc3ccccn3)n2)c1` , which call appears in the assay record? Y

Hello, I am checking results. What call was entered for `Cc1[nH]c(=O)c(C#N)cc1-c1ccc2nccn2c1` ? N

Please indicate how the test categorized `CC=CCC=CCCC(=O)[C@H]1O[C@@H]1C(N)=O` . N

Hi team, can someone confirm the assay call for `CNC(=O)c1ccccc1Sc1ccc2c(C=Cc3ccccn3)n[nH]c2c1` ? Y

Dear all, I need the recorded test outcome for `CC(=O)OCC(=O)[C@@]1(O)CC[C@H]2[C@@H]3CCC4=CC(=O)CC[C@]4(C)[C@@H]3C(=O)C[C@@]21C` , thank you. N

----------
Test Protocol: Cellular viability qHTS for adrenocortical cancer (ACC) cell line SW-13 (AID 1963989); further: potency means the concentration at half of the fitted maximal effect; nearly all actives have a fitted effect of over 65% in size
Recorded Conditions: SW-13 ACC cells viability, CellTiter-Glo, 48 h
Records with an inconclusive call do not appear. Calls of active or inactive are those of the source. The call rests on the fitted dose curve; in most records, active means well fitted cell-killing curve with a large enough effect; inconclusive means small, poorly fitted or top-dose-only effect; inactive means flat fitted curve, though single readings scatter. Peptide text beside a SMILES is read from it. * marks the point of attachment. Cbz = O=C(OCc1ccccc1)*
Property Measured: Potency

Below are worked cases with known answers.
{"columns": ["Molecule", "Potency"],
 "data": [
  ["O=C(NO)c1cnc(N2C[C@H]3C[C@@H]2CN3c2cc(C(F)(F)F)ccn2)nc1", "10 µM (active)"],
  ["CNCCCN1c2ccccc2CCc2ccccc21", "20.6 µM (active)"],
  ["COc1ccc2nc3cc(Cl)ccc3c(Nc3cc(CN4CCCC4)c(O)c(CN4CCCC4)c3)c2n1", "12.6 µM (active)"],
  ["C=CC(=O)Nc1cc2c(Nc3ccc(F)c(Cl)c3)ncnc2cc1C#CC(C)(C)N1CCN(C)CC1", "3.16 µM (active)"],
  ["CNC(=O)c1ccccc1Nc1nc(Nc2ccc(N3CCOCC3)cc2OC)ncc1Cl", "5.62 µM (active)"],
  ["CC(C)C[C@@H](C=O)NC(=O)[C@H](CC(C)C)NC(=O)[C@H](CC(C)C)NC(=O)OCc1ccccc1 (Cbz-Leu-Leu-Leu-aldehyde)", "0.794 µM (active)"]
]}

Your task in this section: give Potency for each listed record.
1. CCNC(=O)c1noc(-c2cc(C(C)C)c(O)cc2O)c1-c1ccc(CN2CCOCC2)cc1
2. CCOC(=O)C1=C(C)NC(C)=C(C(=O)OCC)C1c1ccccc1/C=C/C(=O)OC(C)(C)C
3. CCC(C(=O)O)C1CCC(C)C(C(C)C(O)C(C)C(=O)C(CC)C2OC3(C=CC(O)[C@@]4(CC[C@](C)(C5CC[C@@](O)(CC)C(C)O5)O4)O3)C(C)CC2C)O1 (some centres undefined)

0.0708 µM (active)
16.4 µM (active)
2.82 µM (active)
